Data credit: patent US20040097377A1

- Tested on: Beet Armyworm (Spodoptera littoralis)
- MEASUREMENT PROTOCOL: Beet armyworm feeding bioassay (egg and larval stage, 96-well agar diet plate, percent mortality)
- Assay type: in vivo
- PROTOCOL CONDITIONS: Rate 50 ppm, average of three replicates
Field: Beet Armyworm Diet (6 day) Mortality (%). Provide a value for each of the compounds that follow.
Enter your answer as a number in %; do not include the unit.

Could you please provide reported Beet Armyworm Diet (6 day) Mortality (%) for CCC=CC1CCCC(OC2CCC(N(C)C)C(C)O2)C(C)C(=O)C2=CC3C(C=CC4CC(OC5OC(C)C(O)C(OC)C5OC)CC43)C2CC(=O)O1 (stereo not shown) ? Thanks!
100

Could you please provide reported Beet Armyworm Diet (6 day) Mortality (%) for CCC=CC1CCCC(OC2CCC(N(C)C)C(C)O2)C(C)C(=O)C2=CC3C(C=CC4C(O)C(OC5OC(C)C(OC)C(O)C5OC)CC43)C2CC(=O)O1 (stereo not shown) ? Thanks!
100

Could you please provide reported Beet Armyworm Diet (6 day) Mortality (%) for CCC=CC1CCCC(OC2CCC(N(C)C)C(C)O2)C(C)C(=O)C2=CC3C(C=CC4CC(OC5OC(C)C(OC)C(O)C5OC)CC43)C2CC(=O)O1 (stereo not shown) ? Thanks!
100

Could you please provide reported Beet Armyworm Diet (6 day) Mortality (%) for CCC=CC1CCCC(OC2CCC(N(C)C)C(C)O2)C(C)C(=O)C2=CC3C(C=CC4C(O)C(OC5OC(C)C(O)C(O)C5OC)CC43)C2CC(=O)O1 (stereo not shown) ? Thanks!
93

Could you please provide reported Beet Armyworm Diet (6 day) Mortality (%) for CCC=CC1CCCC(OC2CCC(N(C)C)C(C)O2)C(C)C(=O)C2=CC3C(C=CC4CC(OC5OC(C)C(OC)C(OC)C5O)CC43)C2CC(=O)O1 (stereo not shown) ? Thanks!
100

Could you please provide reported Beet Armyworm Diet (6 day) Mortality (%) for CCC=CC1CCCC(OC2CCC(N(C)C)C(C)O2)C(C)C(=O)C2=CC3C(C=CC4C(O)C(OC5OC(C)C(O)C(OC)C5OC)CC43)C2CC(=O)O1 (stereo not shown) ? Thanks!
100

Could you please provide reported Beet Armyworm Diet (6 day) Mortality (%) for CCC=CC1CCCC(OC2CCC(N(C)C)C(C)O2)C(C)C(=O)C2=CC3C(C=CC4CC(OC5OC(C)C(O)C(O)C5OC)CC43)C2CC(=O)O1 (stereo not shown) ? Thanks!
100

Could you please provide reported Beet Armyworm Diet (6 day) Mortality (%) for CCC=CC1CCCC(OC2CCC(N(C)C)C(C)O2)C(C)C(=O)C2=CC3C(C=CC4CC(OC5OC(C)C(OC)C(OC)C5OC)CC43)C2CC(=O)O1 (stereo not shown) [Compound 1, for-rham-I, reference compound] ? Thanks!
100

Could you please provide reported Beet Armyworm Diet (6 day) Mortality (%) for CC=CC1CCCC(OC2CCC(N(C)C)C(C)O2)C(C)C(=O)C2=CC3C(C=CC4CC(OC5OC(C)C(O)C(O)C5OC)CC43)C2CC(=O)O1 (stereo not shown) ? Thanks!
80

Could you please provide reported Beet Armyworm Diet (6 day) Mortality (%) for CCC=CC1CCCC(OC2CCC(N(C)C)C(C)O2)C(C)C(=O)C2=CC3C(C=CC4CC(OC5OC(C)C(O)C(O)C5O)CC43)C2CC(=O)O1 (stereo not shown) ? Thanks!
100
